test_system: M1 (Homo sapiens)
Construct: human recombinant receptor
Sequence (P11229 whole entry): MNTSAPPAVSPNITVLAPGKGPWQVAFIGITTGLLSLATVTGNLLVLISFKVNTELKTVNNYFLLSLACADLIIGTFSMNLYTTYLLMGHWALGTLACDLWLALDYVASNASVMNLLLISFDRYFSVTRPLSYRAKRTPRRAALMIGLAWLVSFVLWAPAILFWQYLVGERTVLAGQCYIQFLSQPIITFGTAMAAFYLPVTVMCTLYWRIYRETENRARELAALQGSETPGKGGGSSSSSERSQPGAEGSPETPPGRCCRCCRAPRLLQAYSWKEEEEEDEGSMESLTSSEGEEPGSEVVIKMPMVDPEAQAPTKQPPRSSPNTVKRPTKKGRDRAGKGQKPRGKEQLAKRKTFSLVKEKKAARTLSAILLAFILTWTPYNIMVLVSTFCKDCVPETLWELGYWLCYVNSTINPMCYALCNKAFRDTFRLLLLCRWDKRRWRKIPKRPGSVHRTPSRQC
assay_text: radioligand binding inhibition
stated_conditions: […] test; read-out: EC50 or IC50
metric_name: pIC50
Answers are plain numbers, as −log10 of the molar value.

Assign pIC50 to the following record: CN(C)c1cc(CNCC(C)(C)C)c(O)c2c1C[C@H]1C[C@H]3[C@H](N(C)C)C(=O)C(C(N)=O)=C(O)[C@@]3(O)C(=O)C1=C2O [omadacycline] 4.54

###

test_system: M2 (muscarinic subtype 2 acetylcholine receptor) (Homo sapiens)
Construct: gene CHRM2; human recombinant receptor
Sequence (P08172 1-466): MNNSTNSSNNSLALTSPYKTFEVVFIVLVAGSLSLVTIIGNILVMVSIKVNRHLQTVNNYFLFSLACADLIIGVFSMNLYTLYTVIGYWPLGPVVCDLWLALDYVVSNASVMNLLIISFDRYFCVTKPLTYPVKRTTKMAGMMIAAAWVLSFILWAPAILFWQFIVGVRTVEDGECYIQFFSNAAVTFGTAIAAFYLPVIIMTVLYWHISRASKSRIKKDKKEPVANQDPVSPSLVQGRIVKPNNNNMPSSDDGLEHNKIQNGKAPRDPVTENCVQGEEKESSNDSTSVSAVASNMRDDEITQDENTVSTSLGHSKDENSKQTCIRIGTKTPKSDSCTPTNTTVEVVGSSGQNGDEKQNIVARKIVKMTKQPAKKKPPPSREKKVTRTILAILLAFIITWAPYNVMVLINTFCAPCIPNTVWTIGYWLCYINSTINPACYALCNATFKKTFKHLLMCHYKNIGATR
assay_text: functional M2 antagonist assay
Format: cell-based
stated_conditions: antagonist mode; range of […] separate tests ([…])
pIC50: −log10 of the molar value.
metric_name: pIC50

// output pIC50; input CN(C)c1cc(CNCC(C)(C)C)c(O)c2c1C[C@H]1C[C@H]3[C@H](N(C)C)C(=O)C(C(N)=O)=C(O)[C@@]3(O)C(=O)C1=C2O [omadacycline] ; system M2 (muscarinic subtype 2 acetylcholine receptor) (Homo sapiens) 4.55 to 4.68
